B1: FAM9B (parent)
chain: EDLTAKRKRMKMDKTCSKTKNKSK

# Variants of: B1
# Test protocol: protein stability index of a GFP-peptide fusion (GPS, HEK-293T) (PSI 1-6); higher = more stable;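 further: lentivirally expressed fusions sorted by FACS into six bins by GFP to DsRed ratio, PSI derived from sequencing read proportions per bin multiplied by bin number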
# Condition: c terminus: a fixed tail appended
Consider the following variants; for each one, report its protein stability index.
Answers are plain numbers.

Summary for this variant, `L3T` : protein stability index is 5.33

# return protein stability index for each item in the list
1. E1N
2. R9H
3. C16Q
4. S23T

Solution:
1. 5.29
2. 4.49
3. 5.45
4. 5.31

# return protein stability index for each item in the list
1. T4L
2. K18I
3. K18H
4. M10N
5. K22F
6. N21R
7. E1P

Solution:
1: 4.6; 2: 4.9; 3: 5.3; 4: 4.23; 5: 4.63; 6: 5.25; 7: 4.9

# return protein stability index for each item in the list
1. K8S
2. S23I
3. K8E
4. K8G
5. K11C
6. M10F

Solution:
1: 5.39; 2: 4.78; 3: 4.99; 4: 4.75; 5: 4.9; 6: 4.88
